Examples of variants with documented normalized RNA/DNA level without ligand (log10) follow.
B1: library; a variant is named by its letters at N, in order (parent)
chain: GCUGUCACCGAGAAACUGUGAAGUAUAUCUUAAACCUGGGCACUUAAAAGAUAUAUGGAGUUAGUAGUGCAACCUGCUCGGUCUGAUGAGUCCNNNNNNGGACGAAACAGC

variants of: B1; test: normalized RNA/DNA level without ligand (relative to sTRSVctl = 100) (log10 (% of sTRSVctl)); HEK293T; ligand: cyclic di-GMP (c-di-GMP-II aptamer); higher = less ribozyme self-cleavage, higher mRNA level; conditions: reporter: mCherry (pCS4076), ligand present: no
Lab note: jot the number down without any unit.

CCCGGC : 1.75
CGGCCU : 1.74
UAAAAU : 1.61
UAUCGG : 1.74
UUUGAA : 1.59

Quote normalized RNA/DNA level without ligand (log10) reported for `AGUGAC` please. 1.63

Given `CGUACC` , respond with its normalized RNA/DNA level without ligand (log10). 1.74

Give normalized RNA/DNA level without ligand (log10) for `GCUGUC` 1.43

Consider the variant `CUUCCA` . State its measured normalized RNA/DNA level without ligand (log10). 1.61

Return value of normalized RNA/DNA level without ligand (log10) for input `CAGUCU` , no commentary. 1.52

Give the measured normalized RNA/DNA level without ligand (log10) for `GGUAAC` 1.74

Numbers sourced from the supplement of paper PMC6757056.
